This listing pairs compounds with measured melting point.

Check out these entries, answers already filled in.
COc1cc(CCCCCCCC2OC(=O)NC2=O)ccc1OCc1nc(-c2ccccc2)oc1C (stereo unspecified)	109 to 111 °C
CC(C)(C)OC(=O)NC1CCC(=O)NC1=O (stereo unspecified)	214 to 215 °C
CC1(C)OC(=O)c2c(cccc2-c2ccccn2)O1	142 °C
CCCCCCOc1ccc(OC)c(Cc2cnc(N)nc2N)c1	139 to 140 °C
CC(C)CC(NC(=O)N1CCc2cc(S(=O)(=O)N3CCN(c4cccc(Cl)c4)CC3)ccc21)C(=O)O (stereo unspecified)	138 to 140 °C
O=C(c1ccccc1)c1cccc2c1OCC2C(=O)O (stereo unspecified)	163 to 165 °C
O=C(O)c1ccc(OCC(O)c2cc3cc(Cl)ccc3o2)cc1 (stereo unspecified)	157 to 159 °C
COc1cc(Cl)ccc1C(=O)Nc1ccc(C(=O)N2Cc3cccn3Cc3ccccc32)cc1	222 to 224 °C

Exercise: Check the records and state melting point for Cc1ccccc1-c1cc(Cl)cc2c1OC(CN)C2 (stereo unspecified)
Key: 160 to 163 °C

Exercise: Provide measured melting point value, entry: N#Cc1ccc(N(CCOc2ccc(OCc3ccccc3)c(Br)c2)n2cnnc2)cc1
Key: 163 to 166 °C

Exercise: Look up melting point of COc1cc(NC(=O)c2ccccn2)ccc1Oc1ncccn1 and report it.
Key: 203 to 205 °C

Exercise: Answer with the recorded melting point for the compound listed here: CCCCCCCCCCCCNC(=O)c1cc(-c2cccc(OC)c2)c(OCC(=O)O)c(-c2cccc(OC)c2)c1
Key: 57 to 58 °C

Exercise: Check the records and state melting point for CSc1ccc(O)nn1
Key: 119 °C

Exercise: Name the recorded melting point of the item COc1ccc(CCOC(=O)NC(=O)C(c2ccccc2)c2ccccc2)cc1OC in your answer.
Key: 144 °C

Exercise: Note down melting point recorded for COc1cc(C=CC(=O)Nc2c(-c3ccccc3Cl)c3cc(C(C)C)ccc3n(C)c2=O)cc(OC)c1OC(C)=O
Key: 187 to 189 °C
